Measured values drawn from patent US10100129B2 for this set.

- TARGET_OR_TEST_SYSTEM: CD64 (FcgRI) (Homo sapiens, UniProt P12314)
- Sequence (P12314 16-374): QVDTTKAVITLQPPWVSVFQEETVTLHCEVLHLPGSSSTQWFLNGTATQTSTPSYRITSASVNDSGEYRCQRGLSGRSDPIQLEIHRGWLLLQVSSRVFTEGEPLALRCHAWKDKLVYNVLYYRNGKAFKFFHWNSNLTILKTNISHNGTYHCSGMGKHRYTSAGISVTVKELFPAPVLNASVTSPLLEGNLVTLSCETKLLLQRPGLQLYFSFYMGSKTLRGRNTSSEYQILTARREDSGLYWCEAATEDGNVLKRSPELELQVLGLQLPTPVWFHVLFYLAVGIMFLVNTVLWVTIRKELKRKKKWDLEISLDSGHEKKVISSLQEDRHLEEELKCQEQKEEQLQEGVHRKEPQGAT
- PROTOCOL_NOTES: SPR binding of 1.0 μM antibody to anti-his Fab captured FcgR-his: CD64
METRIC: % Rmax, binding to hCD64 (%)
Your answer should be a plain number; it is taken to be in %.

Look up % Rmax, binding to hCD64 for this molecule: mAb6-IgG2.5 (protein, left off: another chain or arm of the molecule) constant: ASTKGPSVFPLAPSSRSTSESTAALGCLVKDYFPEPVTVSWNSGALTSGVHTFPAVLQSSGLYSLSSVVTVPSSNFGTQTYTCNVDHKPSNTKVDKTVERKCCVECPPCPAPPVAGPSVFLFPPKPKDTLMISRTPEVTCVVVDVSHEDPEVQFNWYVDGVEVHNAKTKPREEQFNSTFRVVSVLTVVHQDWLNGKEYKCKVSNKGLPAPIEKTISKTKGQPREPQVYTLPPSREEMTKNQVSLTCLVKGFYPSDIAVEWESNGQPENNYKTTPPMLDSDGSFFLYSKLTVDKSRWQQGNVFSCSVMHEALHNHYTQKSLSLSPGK
3
